Data origin: patent US6017871A

# Substrate: C[C@H](NC(=O)CCC(=O)O)C(=O)N[C@@H](C)C(=O)N1CCC[C@H]1C(=O)N[C@@H](Cc1ccccc1)C(=O)Nc1ccc([N+](=O)[O-])cc1
# experiment.summary: Kinetic parameters for hydrolysis of synthetic peptide substrate
# Type: biochemical, Bacillus lentus
# condition.label: other: Table III, 0.1 M Tris-HCL buffer, pH 8.6, 25° C.
measured.parameter: kcat (s⁻¹)

[
  {
    "protein": "Bacillus lentus subtilisin variant N76D/S103A (Protease #3) (Lederbergia lenta; N74D/S101A) (protein, The mature subtilisin protein is coded by the codons beginning at the codon GCG (334-336) corresponding to Ala; made in house; host or cells: Bacillus subtilis) AQSVPWGISRVQAPAAHNRGLTGSGVKVAVLDTGISTHPDLNIRGGASFVPGEPSTQDGNGHGTHVAGTIAALDNSIGVLGVAPSAELYAVKVLGASGSGAVSSIAQGLEWAGNNGMHVANLSLGSPSPSATLEQAVNSATSRGVLVVAASGNSGAGSISYPARYANAMAVGATDQNNNRASFSQYGAGLDIVAPGVNVQSTYPGSTYASLNGTSMATPHVAGAAALVKQKNPSWSNVQIRNHLKNTATSLGSTNLYGSGLVNAEAATR",
    "measured.parameter": "kcat",
    "measurement": 400
  }
]
